assay: soluble on expression in E. coli; label from the status in PepcDB or PDB records
readout-name: soluble on expression in E. coli

MGSDKIHHHHHHMTDLKTTFAGLSLRNPIIISSSGLTNSAGKNKRLAEAGAGAIVLKSLFEEQIMLEADQLKDPAFYPEASDYLEEYIREHKLAEYLTLIKESKKECSIPIIASINCYSDSEWVDFAKQIQEAGADALEINILALQSDVQYTYGSFEQRHIDILRHIKQTVTIPVIMKLGDNLTNPVALIDQLYANGAAAVVLFNRFYQPDINIENMEQVSGEVFSTSADLATPLRWIGIASSVVNKIDYAASGGVANPEAVVKAILAGASAVEVCSAIYQNTNAFIGESTRFLSAWMERKGFKNIAQFKGKLNIKDVQGINTFERTQFLKYFGKKEA
not soluble
MGSDKIHHHHHHMNNYNDTIRNLDNIVYKPNNLMITNVKEEKQNAEYAGCIFHLNNKTIRFRKSKITPNKIGQFVSFWEKGDNMQNQAFSYNAAPDLLVITCIDDNKLGQFIFPKEILLKEKILRTENQKGKMAMRIYPIWDTPVSNQAKKSQLWQIQYFVDLSNHNNLTIDELLNLYS
not soluble

* * *

experiment: soluble on expression in E. coli; label from the status in PepcDB or PDB records
readout-name: soluble on expression in E. coli

MNGAAQADLWRLVVLNTYGGVYMDIDATLVWPLDKLLGDSQELYIRIKNNTEITNYFIATAPNNPDLQATIEQVVYNVNHYEPSMGVYHSTGPTVLNNILSAKAVIHTQDRKYVCIQGTFTNEHFQYIDKPRGKWLEHHHHHH
not soluble
MGSDKIHHHHHHMSEWDKNRWKEGRSSEYTWKGVVFMAKIMKQFLKGNDLSLSIQEIFKNELIPCTVRHLPKGEILWHDKEPHPYSYFIINGIIKLHVVTKEGREKALFYYTNGSLLGFQNLAKEKRTITTATAILPTSLYACEFSLLYTFVMNNPQYFAAFTSYIFHHMAVEAEEIVNISLYNTAERLAALLVLLAEEFPQNEQGYIEIPFNNEELATMVGACRNSVFNALSVFQKQKLIHKGRGRLVIADLPRLKEYV
not soluble
MATCLVEFAKSPPVFSPGEKVTGNVKMTIPDDEFKARKVRMEMIGKAYTYWEGNVRNNHTKIKNGDIARVRHNCADHKGKIVYCRFETIVWKSDGAKNDMPSGPHIFPFSFQLPHWAPPSFEGDLGFIRYFIKVEIDRPWKFDDKFITCLTVLPNIDLRLIPNSQVPSKKHVCEEFGAVLWKNGLVRMELRLPKQGFVCGENIPVTMIVDNKTSKSFKKISLRLVQRVTYTGFRDGFVNSHSQPCIGNEKEKITYATRLNAQTRVEERQISETNIDIKIDKNEKQEVEKPIPLPPLPPSTKTCEIIDVEYFLKVKMSTSGALKSAVKLELAFIIGTMPIDPERKYEYKKSVFGFAATSLKNRDVQKFAPLYPVFKFDE
not soluble

* * *

test: soluble on expression in E. coli; label from the status in PepcDB or PDB records
readout-name: soluble on expression in E. coli

MAFVTTAEVCDANQELIRSGQLRALQPIFQIYGRRQIFSGPVVTVKVFEDNGLIRQFIEEKGNGRVLVVDGGGSQRCAILGGNPVVQAQNNGWAGIVVNGCIRDVDEINGCDIGVRALASHPIKASKKGLGEQRVPVNIAGTRICDGEWLYADTDGILVSQIELSV
soluble
MSGFFQRLFGKDNKPAIARGPLGLHLNSGFTLDTLAFRLLEDELLIALPGEEFTVAAVSHIDLGGGSQIFRYYTSGDEFLQINTTGGEDIDDIDDIKLFVYEESYGISKESHWREAINAKAMGAMTLNWQEKRWQRFFNSEEPGNIEPVYMLEKVENQNHAKWEVHNFTMGYQRQVTEDTYEYLLLNGEESFNDLGEPEWLFSRALGVDIPLTSLHIIG
not soluble
MTDYLNVGKIVNTQGIKGEVRVISKTDFPEERYQKGAMLLLFQEKKAPIELVVKSHRKHKNFDILSFEGHPNINDVEKYRDGILKVAKDNLAELAEDEFYYHQIIGATVYDETGSELGKIKEILSPGANDVWVVQRPKKKDLLLPYIEGVVTKVDVENQRIDVDIPEGLIDDENLEHHHHHH
soluble
MGSDKIHHHHHHMINQVYRLVSERQFEVANVDESLTGDVVVVRPTHLSICAADQRYYTGSRGKEMLSKKLPMALIHEGVGEVVYDATKEFKPGAKVVMIPNTPFENDPVIAENYLRSSKFRSSGYDGLMQDYVFMRRDRVVALPDDINMKVAAFSELISVAVHAILRFEGKSNANRESFGVWGDGNLGFITSLLLKNWYPDSKVYIFGKTPYKLDFFSFVDGAYAIDDVPADLVIDQAFECAGGMGSQYAVSQIIDVIKPEGTISLLGVSEYPIEFNSRMVLEKGLTVYGSSRSGRVDFEKTVEFLSTNKRGVEYLQNLVGEVHTVHSIQDVIEAFEADLRSPWGKSVMEWKI
not soluble

Can you look up the measured soluble on expression in E. coli of MGSDKIHHHHHHMFLVISVVGSSNIDIVLKVDHFTKPGETQKAIEMNVFPGGKGANQAVTVAKIGEKGCRFVTCIGNDDYSDLLIENYEKLGITGYIRVSLPTGRAFIEVDKTGQNRIIIFPGANAELKKELIDWNTLSESDILLLQNEIPFETTLECAKRFNGIVIFDPAPAQGINEEIFQYLDYLTPNEKEIEALSKDFFGEFLTVEKAAEKFLELGVKNVIVKLGDKGVLLVNKNEKKHFPTFKVKAVDTTAAGDVFNGAFAVALSEGKNPEEAVIFGTAAAAISVTRLGAQSSIPAREEVEAFLKNL for me?
soluble

Can you look up the measured soluble on expression in E. coli of MSGALFLIPAPLGDETVAWLPEGERAKVVHITHFVVEAEKTARKHLKALGVTTPIRELSMSTLNEHTKETDVAALLAPLQAGHDVGLISEAGCPAVADPGAQLVALAHQRDIRVEPLIGPSSILLALMASGANGQCFAFHGYLPVDAAEKSKLVKELEQRSRKHNETQLFIETPYRNNALLAQLRETLAPSTRLAVACDLTLPTQTIVSHRVQDWPQNPPDLHKRPAIFVIHAALEHHHHHH for me?
soluble

Can you look up the measured soluble on expression in E. coli of SQPKVPEWVNTPSTCCLKYYEKVLPRRLVVGYRKALNCHLPAIIFVTKRNREVCTNPNDDWVQEYIKDPNLPLLPTRNLSTVKIITAKNGQPQLLNSQ for me?
soluble

* * *

experiment: soluble on expression in E. coli; label from the status in PepcDB or PDB records
readout-name: soluble on expression in E. coli

MMDHAHDSCSPTLRRDLEVTGQLQPEKAVDLAAPHEGKVANITKVTSSNMEHTITQASKAKEVVVLIGHSLLPTFQDLEKDILHFQAGNKGRFSVAIVDPDRSADVVARFRPKQIPVAYVVKDGASIAEFNSLNKEPVAQWLDHFVSRETIPNEKEGDVDKQIDPRLWRAAELVNAGDFRAALALYEQLPQDATVKRAHAAVSVLARMSVADRGEDPIEKSRRDPDDVNKALAAADMYVLMNQPDTALAHLAALLPKPEAARRIVELLNLFDPLDLVALEIRAQVGNAMS
not soluble
SLKNTGYILALCLTASGHVLAHDVWITGKQAENNVTAEIGYGHNFPSKGTIPDRRDFFENPRLYNGKETITLKPASTDYVYKTESASKDNGYVLSTYMKPGYWSRTSSGWKPVSREGRNDVAYCEFVTKYAKSFIPGEQQMPAQLYQSPTGHELEIIPLSDISRFSENVKLKVLYKTSPLAGAIMELDSVSYLTSSRHTHAVEHKHPVHKAELTFVTNEDGIVTVPSLHIGQWLAKVQNKKSFQDKSLCDETVDVATLSFSRN
not soluble

* * *

assay: soluble on expression in E. coli; label from the status in PepcDB or PDB records
readout-name: soluble on expression in E. coli

Some solved cases for reference:
MAHHHHHHMEANGTLVECKRGESDAVVFRFLIIDAPSPSSVPAYMKLLQRHNVMHIVRACGPTYNAEVFEKQGIVVHGWSFDDGASPTQTVIDNWLNLLEQEKNKSPPETIAVHCVSGLGRAPILVALALVEYGGMPPLDAVGYVRGRRKGAINQVQLNWLMRYKPRHQESNEGSLICARCTLM
soluble
MNRARDWLEQARHNLRHAQGSLGLGDYAWACFAAQQAAEAALKGLHLARGQVAWGHSILDLLADLPEDVDVPEDLVEAAKVLDKYYIPTRYPDAHPAGPAARHYTRLEAEEALDLAQKILAFVEEKL
soluble
MSLNLPSFTLDIKLAGDGPAGVEKQIQQMQAMVDDRVDLIIVQPTDNAALSSPLQAANQAGIPVVAYDQYISGGHLSAFVTSNNYQAGFLDGEYMAHHFADDHTIQIILVEYPYVSSTIDRVDGFFDALNQYKQPYRILRSYQAVEPVQGRAVGQQILQDFPQPGSVDALFTINDGGGLAIVDELEKAGRHELFVATIDGDPNSVARIRKGSIIKIDSAQFCGPIGAEAMRAAYAILTAGKVHEHWLVPVFPITRQSVAHYPGWSGPIPEHYSNPCLTFLCREGHHHHHH
not soluble
MAHHHHHHMFKTMMFKTMRNYFMLNFKRNYRHYSRKKNINNINRKMNDPYSDLYKMNYYGNNFKRLPNKKTKSNEYELIRTSSNSFTYSSPYPPNINYTLKPYPDSAKEFYYENRKYVMKYKNVEYIPIKRMVCKGMSRRSNWDTYYLRVEK
not soluble
GMTNTTYVQEYHAIVEVLSKYNEGGKKADSTIMRPAFSSQATIFGVDVDNKLTGGPIQGLFDVIDNVFHPSPEAKAAIARIDIVGTAASARIDTDDISGFRFTDFFNLLKVEGKWTVVSKIYHTHPSA
soluble

Can you look up the measured soluble on expression in E. coli of MAHHHHHHMDTTTLKEADMNQMIIQLMEREKKKKKKKNIYEQKKMEPQNYSHMKKFKISPKEEKSLNKEEIKSHLINFFQEQEKIYKDEELNTKNYIIDETKKKEKEVYLNGYYIYCQDFKNEYNNYFNSFIKESEDIKKDLKDLQIQYMDDKILLGNKRKMELDNMLHFYKEKLLDIKNHWDTKNFCDDNLKNIVYDILNVIN for me?
not soluble

Can you look up the measured soluble on expression in E. coli of MGSDKIHHHHHHMKAYLVGLYTLTPTHPGSGTELGVVDQPIQRERHTGFPVIWGQSLKGVLRSYLKLVEKVDEEKINKIFGPPTEKAHEQAGLISVGDAKILFFPVRSLKGVYAYVTSPLVLNRFKRDLELAGVKNFQTEIPELTDTAIASEEITVDNKVILEEFAILIQKDDKGILESVVKAIEQAFGNEMAEKIKGRIAIIPDDVFRDLVELSTEIVARIRINAETGTVETGGLWYEEYIPSDTLFYSLILVTPRAKDNDMALIKEVLGKINGKYLQIGGNETVGKGFVKVTLKEVTNNGGTHAK for me?
not soluble

Reference source: the DeepSol protein solubility set
